- STUDY_SYSTEM: CDK4/Cyclin D1 (Homo sapiens)
- PROTOCOL_TEXT: cell-free […]-ATP kinase assay, P81 phosphocellulose plate
Listed here: items and their measured IC50.
OBSERVATION_TYPE: IC50 (µM)

- COc1c(O)cc2oc3cc4c(c(O)c3c(=O)c2c1CC=C(C)C)CCC(C)(C)O4: 15.6
- COc1c(O)cc2oc3cc(O)c(CC=C(C)C)c(O)c3c(=O)c2c1CC=C(C)C: 8.5
- COc1c(O)cc2oc3cc(O)c(CC=C(C)C)c(O)c3c(=O)c2c1CCC(C)(C)O: 12.8
- CC(C)=CCc1c(O)cc2oc3cc(O)c(O)c(CC=C(C)C)c3c(=O)c2c1O: 6.2

----------
- STUDY_SYSTEM: CDK4/Cyclin D1 (Homo sapiens, UniProt P11802)
- Sequence (P11802 2-303): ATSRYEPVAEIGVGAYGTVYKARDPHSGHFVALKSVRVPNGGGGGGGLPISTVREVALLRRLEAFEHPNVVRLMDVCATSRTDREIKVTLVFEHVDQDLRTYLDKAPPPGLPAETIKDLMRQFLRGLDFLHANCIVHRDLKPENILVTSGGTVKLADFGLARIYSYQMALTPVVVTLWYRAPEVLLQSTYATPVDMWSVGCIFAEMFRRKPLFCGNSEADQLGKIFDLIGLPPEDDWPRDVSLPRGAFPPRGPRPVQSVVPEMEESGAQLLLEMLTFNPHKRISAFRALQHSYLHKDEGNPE
- Sequence (P24385 whole entry partner): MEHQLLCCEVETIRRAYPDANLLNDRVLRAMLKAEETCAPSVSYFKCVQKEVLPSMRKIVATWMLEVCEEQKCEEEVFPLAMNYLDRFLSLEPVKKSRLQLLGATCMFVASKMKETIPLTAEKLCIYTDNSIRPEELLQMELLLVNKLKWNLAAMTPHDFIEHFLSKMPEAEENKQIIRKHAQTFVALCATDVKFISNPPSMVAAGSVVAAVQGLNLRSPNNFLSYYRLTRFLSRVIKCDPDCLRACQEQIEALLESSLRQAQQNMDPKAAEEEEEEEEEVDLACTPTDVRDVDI
- PROTOCOL_TEXT: cell-free […]-ATP kinase assay, P81 phosphocellulose plate
- Type: biochemical
- EXPERIMENTAL_CONDITIONS: read-out: 40 μM
Listed here: items and their measured activity at 40 µM.
OBSERVATION_TYPE: activity at 40 µM (%)

* CC(C)=CCc1c(O)c(CC=C(C)C)c2oc3c(O)cccc3c(=O)c2c1O [8-desoxygartanin] | 81.4
* CC(C)=CCc1c(O)cc2oc3cc(O)c(O)c(CCC(C)(C)O)c3c(=O)c2c1O [garcinone C] | 65.7
* COc1cc2oc3cc(O)c(OC)c(CC=C(C)C)c3c(=O)c2c(O)c1CC=C(C)C [β-mangostin] | 55
* CC(C)=CCc1c(O)c(CC=C(C)C)c2oc3c(O)ccc(O)c3c(=O)c2c1O [gartanin] | 80.2
